system: WHIM30 (cells of a triple-negative basal-like breast cancer xenograft); assay: cell viability (% of vehicle); higher = less cytotoxic; conditions: 10 µM; 72 h;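 also: PDX cells carrying CMV promoter-driven luciferase, viability read as total photon flux per second by IVIS imaging following D-luciferin, vehicle control 0.1% DMSO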
Quick reference: cell viability of the listed items.
OUTCOME_MEASURE: cell viability

[[record]]
molecule = "Nc1c(CC(=O)[O-])cccc1C(=O)c1ccccc1.O.[Na+] [Amfenac Sodium Monohydrate]"
outcome_measure = "cell viability"
observed = 90.1

[[record]]
molecule = "Cc1cc(C=CC#N)cc(C)c1Nc1ccnc(Nc2ccc(C#N)cc2)n1 [Rilpivirine]"
outcome_measure = "cell viability"
observed = 110

[[record]]
molecule = "O=C(O)c1ccccc1 [Benzoic Acid]"
outcome_measure = "cell viability"
observed = 111

[[record]]
molecule = "CNC(=O)C(NC(=O)C(CC(C)C)C(O)C(=O)NO)C(C)(C)C (centres undefined) [Marimastat]"
outcome_measure = "cell viability"
observed = 117

[[record]]
molecule = "Cc1ccccc1C(=O)Nc1ccc(C(=O)N2CCCC(O)c3cc(Cl)ccc32)c(C)c1 (centres undefined) [Tolvaptan]"
outcome_measure = "cell viability"
observed = 157

[[record]]
molecule = "CCN(CC)CC(=O)Nc1c(C)cccc1C [Lidocaine]"
outcome_measure = "cell viability"
observed = 122

[[record]]
molecule = "O=C(O)c1cc(-c2ccccc2)nc2ccccc12 [Cinchophen]"
outcome_measure = "cell viability"
observed = 139

[[record]]
molecule = "Br.CN1CCCC1Cc1c[nH]c2ccc(CCS(=O)(=O)c3ccccc3)cc12 (centres undefined) [Eletriptan HBr]"
outcome_measure = "cell viability"
observed = 163

[[record]]
molecule = "Nc1nc(=O)c2nc(CNc3ccc(C(=O)NC(CCC(=O)O)C(=O)O)cc3)cnc2[nH]1 (centres undefined) [Folic acid]"
outcome_measure = "cell viability"
observed = 101

